Provenance of the data: paper PMC3912631

- test.method.notes: Rat pharmacokinetics of OA and OC in plasma and urine after oral OA alone or with CMF1
- Assay type: in vivo, Sprague-Dawley rats
- run.parameters: male, Sprague-Dawley, in vivo, po, 30 mg/kg, oral, Group 1: OA alone 30 mg/kg, bid for 5 days, mean ± SD, read-out: T max (converted)
readout.name: Tmax (h)
One number for each entry, in h.

Query: Recorded Tmax of CCC(CC)O[C@@H]1C=C(C(=O)O)C[C@H](N)[C@H]1NC(C)=O [OC, oseltamivir carboxylate] , please.
Result: 1.75

----------
- test.method.notes: Rat pharmacokinetics of OA and OC in plasma and urine after oral OA alone or with CMF1
- Type: in vivo, Sprague-Dawley rats
- run.parameters: male, Sprague-Dawley, in vivo, po, 30 mg/kg, oral, Group 3: OA 30 mg/kg + CMF1 at 3.90 mg/kg, bid for 5 days, read-out: CL renal
readout.name: CL renal

Query: Dear colleague, I am looking for the recorded CL renal of the following molecule: CCC(CC)O[C@@H]1C=C(C(=O)O)C[C@H](N)[C@H]1NC(C)=O [OC, oseltamivir carboxylate]
Result: 6.34 mL/min
